// provenance: ChEMBL document CHEMBL6120978

test: Selectivity index, ratio of IC50 for cytotoxicity against human HaCaT cells to IC50 for cytotoxicity against human SW620 cells; assay type: toxicity, cell-based; conditions: HaCaT cells versus SW620 cells, read-out: Ratio IC50
Property: selectivity ratio; scope: individual compounds
Please respond with just the number, no unit label.

{"Molecule": "CC[C@@H](C(=O)[C@@H](C)[C@@H](O)[C@H](C)[C@@H]1O[C@@H]([C@@H](CC)C(=O)OCCCC[P+](c2ccccc2OC)(c2ccccc2OC)c2ccccc2OC)CC[C@@H]1C)[C@H]1O[C@]2(C=C[C@@H](O)[C@]3(CC[C@@](C)([C@H]4CC[C@](O)(CC)[C@H](C)O4)O3)O2)[C@H](C)C[C@@H]1C.[Br-]", "Meas Value": 0.8}

Turning now to a further compound:
Looking up CC[C@@H](C(=O)[C@@H](C)[C@@H](O)[C@H](C)[C@@H]1O[C@@H]([C@@H](CC)C(=O)OCc2ccccc2)CC[C@@H]1C)[C@H]1O[C@]2(C=C[C@@H](O)[C@]3(CC[C@@](C)([C@H]4CC[C@](O)(CC)[C@H](C)O4)O3)O2)[C@H](C)C[C@@H]1C , I found its selectivity ratio recorded as 1

* * *

Reported MIC values for the following molecules.
test system: Staphylococcus aureus; test: Antimicrobial activity against Staphylococcus aureus ATCC 6538 incubated for 18 hrs by twofold microdilution method; type: functional
State the answer as a number, implicitly in µg/mL.

{"Molecule": "CC[C@@H](C(=O)[C@@H](C)[C@@H](O)[C@H](C)[C@@H]1O[C@@H]([C@@H](CC)C(=O)OCc2ccccc2)CC[C@@H]1C)[C@H]1O[C@]2(C=C[C@@H](O)[C@]3(CC[C@@](C)([C@H]4CC[C@](O)(CC)[C@H](C)O4)O3)O2)[C@H](C)C[C@@H]1C", "Meas Value": 32}
{"Molecule": "CC[C@@H](C(=O)[C@@H](C)[C@@H](O)[C@H](C)[C@@H]1O[C@@H]([C@@H](CC)C(=O)OCCCC[P+](c2ccccc2OC)(c2ccccc2OC)c2ccccc2OC)CC[C@@H]1C)[C@H]1O[C@]2(C=C[C@@H](O)[C@]3(CC[C@@](C)([C@H]4CC[C@](O)(CC)[C@H](C)O4)O3)O2)[C@H](C)C[C@@H]1C.[Br-]", "Meas Value": 2}
{"Molecule": "CC[C@@H](C(=O)[C@@H](C)[C@@H](O)[C@H](C)[C@@H]1O[C@@H]([C@@H](CC)C(=O)OCCCC[P+](c2ccccc2)(c2ccccc2)c2ccc(N(C)C)cc2)CC[C@@H]1C)[C@H]1O[C@]2(C=C[C@@H](O)[C@]3(CC[C@@](C)([C@H]4CC[C@](O)(CC)[C@H](C)O4)O3)O2)[C@H](C)C[C@@H]1C.[Br-]", "Meas Value": 2}
{"Molecule": "CCCC[P+](CCCC)(CCCC)CCCCOC(=O)[C@H](CC)[C@H]1CC[C@H](C)[C@H]([C@@H](C)[C@H](O)[C@H](C)C(=O)[C@H](CC)[C@H]2O[C@]3(C=C[C@@H](O)[C@]4(CC[C@@](C)([C@H]5CC[C@](O)(CC)[C@H](C)O5)O4)O3)[C@H](C)C[C@@H]2C)O1.[Br-]", "Meas Value": 2}
{"Molecule": "CC[C@@H](C(=O)[C@@H](C)[C@@H](O)[C@H](C)[C@@H]1O[C@@H]([C@@H](CC)C(=O)OCCCCCC[P+](c2ccc(C)cc2)(c2ccc(C)cc2)c2ccc(C)cc2)CC[C@@H]1C)[C@H]1O[C@]2(C=C[C@@H](O)[C@]3(CC[C@@](C)([C@H]4CC[C@](O)(CC)[C@H](C)O4)O3)O2)[C@H](C)C[C@@H]1C.[Br-]", "Meas Value": 8}
{"Molecule": "CC[C@@H](C(=O)[C@@H](C)[C@@H](O)[C@H](C)[C@@H]1O[C@@H]([C@@H](CC)C(=O)OCCCCCC[P+](c2ccccc2)(c2ccccc2)c2ccccc2)CC[C@@H]1C)[C@H]1O[C@]2(C=C[C@@H](O)[C@]3(CC[C@@](C)([C@H]4CC[C@](O)(CC)[C@H](C)O4)O3)O2)[C@H](C)C[C@@H]1C.[Br-]", "Meas Value": 2}

Lookup result for CCCC[P+](CCCC)(CCCC)CCCCCCOC(=O)[C@H](CC)[C@H]1CC[C@H](C)[C@H]([C@@H](C)[C@H](O)[C@H](C)C(=O)[C@H](CC)[C@H]2O[C@]3(C=C[C@@H](O)[C@]4(CC[C@@](C)([C@H]5CC[C@](O)(CC)[C@H](C)O5)O4)O3)[C@H](C)C[C@@H]2C)O1.[Br-] ; measured MIC: 2

// field: MIC; key: CC[C@@H](C(=O)[C@@H](C)[C@@H](O)[C@H](C)[C@@H]1O[C@@H]([C@@H](CC)C(=O)OCCCC[P+](c2ccc(C)cc2)(c2ccc(C)cc2)c2ccc(C)cc2)CC[C@@H]1C)[C@H]1O[C@]2(C=C[C@@H](O)[C@]3(CC[C@@](C)([C@H]4CC[C@](O)(CC)[C@H](C)O4)O3)O2)[C@H](C)C[C@@H]1C.[Br-] ; value = 2

# MIC (molecule: CC[C@@H](C(=O)[C@@H](C)[C@@H](O)[C@H](C)[C@@H]1O[C@@H]([C@@H](CC)C(=O)OCCCCCC[P+](c2ccc(OC)cc2)(c2ccc(OC)cc2)c2ccc(OC)cc2)CC[C@@H]1C)[C@H]1O[C@]2(C=C[C@@H](O)[C@]3(CC[C@@](C)([C@H]4CC[C@](O)(CC)[C@H](C)O4)O3)O2)[C@H](C)C[C@@H]1C.[Br-] ) is 4

Reported MIC ( CC[C@@H](C(=O)[C@@H](C)[C@@H](O)[C@H](C)[C@@H]1O[C@@H]([C@@H](CC)C(=O)OCCCC[P+](c2ccc(OC)cc2)(c2ccc(OC)cc2)c2ccc(OC)cc2)CC[C@@H]1C)[C@H]1O[C@]2(C=C[C@@H](O)[C@]3(CC[C@@](C)([C@H]4CC[C@](O)(CC)[C@H](C)O4)O3)O2)[C@H](C)C[C@@H]1C.[Br-] ) = 4

* * *

system: Staphylococcus epidermidis; assay: Antimicrobial activity against Staphylococcus epidermidis ATCC 35984 incubated for 18 hrs by twofold microdilution method; format: functional
Below, each entry is listed with its recorded MIC.
Respond with the figure and its unit, in that order.

Some solved cases for reference:
{"Molecule": "CC[C@@H](C(=O)[C@@H](C)[C@@H](O)[C@H](C)[C@@H]1O[C@@H]([C@@H](CC)C(=O)OCCCC[P+](c2ccccc2OC)(c2ccccc2OC)c2ccccc2OC)CC[C@@H]1C)[C@H]1O[C@]2(C=C[C@@H](O)[C@]3(CC[C@@](C)([C@H]4CC[C@](O)(CC)[C@H](C)O4)O3)O2)[C@H](C)C[C@@H]1C.[Br-]", "Target System": "Staphylococcus epidermidis", "Meas Value": "2 µg/mL"}
{"Molecule": "CC[C@@H](C(=O)[C@@H](C)[C@@H](O)[C@H](C)[C@@H]1O[C@@H]([C@@H](CC)C(=O)OCCCC[P+](c2ccccc2)(c2ccccc2)c2ccc(N(C)C)cc2)CC[C@@H]1C)[C@H]1O[C@]2(C=C[C@@H](O)[C@]3(CC[C@@](C)([C@H]4CC[C@](O)(CC)[C@H](C)O4)O3)O2)[C@H](C)C[C@@H]1C.[Br-]", "Target System": "Staphylococcus epidermidis", "Meas Value": "4 µg/mL"}
{"Molecule": "CC[C@@H](C(=O)[C@@H](C)[C@@H](O)[C@H](C)[C@@H]1O[C@@H]([C@@H](CC)C(=O)OCCCC[P+](c2ccccc2)(c2ccccc2)c2ccccc2)CC[C@@H]1C)[C@H]1O[C@]2(C=C[C@@H](O)[C@]3(CC[C@@](C)([C@H]4CC[C@](O)(CC)[C@H](C)O4)O3)O2)[C@H](C)C[C@@H]1C.[Br-]", "Target System": "Staphylococcus epidermidis", "Meas Value": "1 µg/mL"}

Turning now to a further record.
Entry CC[C@@H](C(=O)[C@@H](C)[C@@H](O)[C@H](C)[C@@H]1O[C@@H]([C@@H](CC)C(=O)OCCCCCC[P+](c2ccccc2)(c2ccccc2)c2ccccc2)CC[C@@H]1C)[C@H]1O[C@]2(C=C[C@@H](O)[C@]3(CC[C@@](C)([C@H]4CC[C@](O)(CC)[C@H](C)O4)O3)O2)[C@H](C)C[C@@H]1C.[Br-] , MIC reported as 2 µg/mL

* * *

system: SW480; test: Cytotoxicity against human SW480 cells incubated for 72 hrs by MTT assay; format: functional, cell-based; conditions: SW480, 72 h
Measurement Label: pIC50
Just the number, please; pIC50 means minus log10 of the concentration in mol/L.

Below, 2 compounds whose answers are already recorded.
{"Molecule": "CC[C@@H](C(=O)[C@@H](C)[C@@H](O)[C@H](C)[C@@H]1O[C@@H]([C@@H](CC)C(=O)OCCCCCC[P+](c2ccccc2)(c2ccccc2)c2ccc(N(C)C)cc2)CC[C@@H]1C)[C@H]1O[C@]2(C=C[C@@H](O)[C@]3(CC[C@@](C)([C@H]4CC[C@](O)(CC)[C@H](C)O4)O3)O2)[C@H](C)C[C@@H]1C.[Br-]", "pIC50": 6.24}
{"Molecule": "CC[C@@H](C(=O)[C@@H](C)[C@@H](O)[C@H](C)[C@@H]1O[C@@H]([C@@H](CC)C(=O)OCCCCCC[P+](c2ccc(OC)cc2)(c2ccc(OC)cc2)c2ccc(OC)cc2)CC[C@@H]1C)[C@H]1O[C@]2(C=C[C@@H](O)[C@]3(CC[C@@](C)([C@H]4CC[C@](O)(CC)[C@H](C)O4)O3)O2)[C@H](C)C[C@@H]1C.[Br-]", "pIC50": 6.28}

Now turn to the next compound.
CC[C@@H](C(=O)[C@@H](C)[C@@H](O)[C@H](C)[C@@H]1O[C@@H]([C@@H](CC)C(=O)OCCCC[P+](c2ccccc2)(c2ccccc2)c2ccc(N(C)C)cc2)CC[C@@H]1C)[C@H]1O[C@]2(C=C[C@@H](O)[C@]3(CC[C@@](C)([C@H]4CC[C@](O)(CC)[C@H](C)O4)O3)O2)[C@H](C)C[C@@H]1C.[Br-] on SW480 gives pIC50 = 6.24
